# Tested on: NCI/ADR-RES ovarian
# ASSAY OVERVIEW: NCI-60 one-dose screen, 48 h
# ASSAY SETUP: 10 µM unless noted
The panel holds about 83,000 compounds, 20% with a hit somewhere; the sample as a whole holds those more often. Calls of active or inactive are those of the source. How the source made its calls: active means growth percent below 10; inactive means the rest.
Classes to choose from: YES for active, NO for inactive

Solved cases below.
- COMPOUND STRING: "CN(C)CCC(=O)Nc1ccc(-n2cc(-c3cccc(NC(=S)Nc4cccc(-c5cn(-c6ccc(NC(=O)CCN(C)C)cc6)nn5)c4)c3)nn2)cc1"
  DISCRETE LABEL: "NO"
- COMPOUND STRING: "Cc1cnc2nc(-c3ccc(N(C)C)cc3)cn2c1"
  DISCRETE LABEL: "NO"
- COMPOUND STRING: "O=C1/C=C/[C@@H](O)[C@@H]2C[C@@H](O)C[C@H]2/C=C/CCC[C@H](CO)O1"
  DISCRETE LABEL: "NO"
- COMPOUND STRING: "O=C1/C(=C\\c2coc3ccccc3c2=O)c2ccccc2N1c1c(Cl)cccc1Cl"
  DISCRETE LABEL: "NO"
- COMPOUND STRING: "Cc1cc(C)c(C(=O)c2cccs2)c(C)c1"
  DISCRETE LABEL: "NO"

I'd appreciate the recorded outcome for `COc1ccc(Cl)cc1Nc1nc(C(F)(F)F)ccc1C(=O)N/N=C/c1c(Cl)cccc1Cl` from this test. NO

What did this assay record as the result for `CNCCCn1c2c(c3ccc(F)cc3c1=O)C(=O)c1cc(OC)cnc1-2` ? YES

Called result for `C[C@@H]1C[C@@H]([C@@H](CC2CC(=O)NC(=O)C2)OC(=O)CC(=O)c2ccccc2)C(=O)[C@@H](C)C1` NO

Give the logged outcome of this assay for the following molecule: `NS(=O)(=O)c1ccc(-n2ncc3c(N/N=C/c4ccccc4)ncnc32)cc1` NO

* * *

Here, each record is paired with measured growth data.
# Test system: HCC-2998 colon
# ASSAY OVERVIEW: NCI-60 one-dose screen, 48 h (100 = growth as untreated, 0 = no growth, -100 = all killed)
# ASSAY SETUP: 10 µM unless noted
This is part of a sample that, as a whole, favours compounds with a hit. Of some 83,000 tested, about 20% had one in any assay.
Provide only the numeric value, understood in %.

Solved cases below.
- COMPOUND: "O=C1OC(Oc2ccccc2)(c2ccccc2)c2ccccc21 (stereo unspecified)"
  growth, %: 104
- COMPOUND: "CC1Cc2ccccc2N1C(=O)c1ccc(C(=O)c2ccccc2)cc1 (stereo unspecified)"
  growth, %: 127
- COMPOUND: "C/C(=C\\CCc1ccsc1)CC/C=C(\\C)CCCN1CCSCC1"
  growth, %: 96.4
- COMPOUND: "CN(C)CCCNc1nn2c(=O)c3ccccc3nc2c2ccccc12"
  growth, %: 70.6
- COMPOUND: "CC(=O)/C(=C/c1ccc(Cl)cc1)C(=O)c1ccccc1"
  growth, %: 99.2

Note: attention shifts to another entry.
// fetch growth given entry `O=C(NCCCl)NCCN1c2nc3ccccc3cc2Sc2cc3ccccc3nc21` 35.1

* * *

# System: MALME-3M melanoma
# ASSAY OVERVIEW: NCI-60 one-dose screen, 48 h
# ASSAY SETUP: 10 µM unless noted
About 83,000 compounds went through this panel and 20% of them were active in at least one assay; those are over-represented in the sample as a whole. The source made the active and inactive calls. How the source made its calls: active means growth percent below 10; inactive means the rest.
Select the matching outcome among Yes (active), No (inactive)

Example entries and their recorded answers appear below.
- COMPOUND: "CC(=O)O[C@H]1CC[C@@]2(C)C(=CC[C@@H]3[C@@H]2CC[C@]2(C)C(c4cccnc4)=CC[C@@H]32)C1"
  TARGET DESC: "MALME-3M melanoma"
  DISCRETE LABEL: "No"
- COMPOUND: "CCOC(=O)C(C(=O)OCC)C1CCCCC1"
  TARGET DESC: "MALME-3M melanoma"
  DISCRETE LABEL: "No"
- COMPOUND: "O=C(CNC(=O)c1cccc2ccccc12)Nc1ccccc1Oc1cccc(O)c1"
  TARGET DESC: "MALME-3M melanoma"
  DISCRETE LABEL: "No"

# lookup: test call for `O=C(Nc1ccccc1)c1cc(-n2cnc([N+](=O)[O-])c2)cc(-n2cnc([N+](=O)[O-])c2)n1` No

For `C/C(=C\CCc1ccoc1)CC/C=C(\C)CCCN1CCOCC1` , what call appears in the results of this test? No

Fill in: this test's call for `COc1ccc2[nH]c(=O)c(CNc3ccc(Nc4nccc(-c5ccc(Cl)cc5)n4)cc3)cc2c1` is ___ No

Record lookup: outcome of this test for `COc1cc(/C=N/OC(=O)Nc2ccccc2)cc(OC)c1OC` ? No

Status in this test for `O=C(O)c1ccc2cccnc2c1O` ? Yes

Which outcome was entered for the compound CC[C@H]1CN2CCc3cc(OC)c(OC)cc3C2C[C@@H]1CC1NCCc2cc(OC)c(OC)cc21 (stereo not given in full) in this test? Yes

Hi, sorry to bother you, what did the test record for `CCOC(=O)/C=C1/SC(=Nc2ccc(C#N)cc2)N(Cc2ccco2)C1=O` ? No

* * *

# System: MALME-3M melanoma
# ASSAY OVERVIEW: NCI-60 one-dose screen, 48 h
# ASSAY SETUP: 10 µM unless noted
# Experimental: Cells are grown in 96 well plates and exposed to the test compound for 48 hours. Compounds are tested at a single concentration, which is 10^-5 M for most compounds. The reported endpoint is percent growth (GI% or GIPRCNT), where numbers from 0 - 100% represent growth inhibition, and numbers from -100% - 0 represent cell death. For example, a value of 40 represents 60% growth inhibition. A value of 0 means no net growth occurred over the course of the experiment. […]
Compounds without any hit were thinned out: in the full panel of roughly 83,000, 20% have a hit. Activity calls are given as the source filed them. The calls were made as follows: active = growth percent below 10; inactive = the rest.
Mark one answer only. Choices: active, inactive

- COMPOUND: "NC(=NCCCCCCN=C(N)/N=C(\\N)Nc1ccc(Cl)cc1)/N=C(\\N)Nc1ccc(Cl)cc1"
  DISCRETE LABEL: "inactive"

Please let me know the test result on file for `O=C(Nc1nc2ccc(OC(F)(F)F)cc2s1)c1ccc(F)cc1` . inactive

Would you mind telling me which call this test gave `CCN(CC)CCSc1ncnc2c1cnn2-c1ccc(S(N)(=O)=O)cc1` ? inactive

Could you check what this test reported for OC(c1ccccc1)C(NCc1ccccc1)c1ccccc1 (stereo unspecified) ? inactive

GET /call?item= `NC(=O)c1cc(Br)cc(Br)c1NS(=O)(=O)c1ccccc1` returns the recorded outcome of this test. inactive

What outcome does the record of this test show for `Cc1ccc(OCC(=O)Nc2ccc(Oc3ccccc3)cc2)c([N+](=O)[O-])n1` ? inactive

Outcome? `CC(C)Cn1cnc2c(NCn3nc(-c4cc(Cl)cc(Cl)c4Cl)n(/N=C/c4ccc(Cl)cc4)c3=S)nc3ccccc3c21` inactive

* * *

# Test system: PC-3 prostate
# ASSAY OVERVIEW: NCI-60 one-dose screen, 48 h
# ASSAY SETUP: 10 µM unless noted
About 83,000 compounds went through this panel and 20% of them were active in at least one assay; those are over-represented in the sample as a whole. Active and inactive are the calls of the source. Rule for the calls: active = growth percent below 10; inactive = the rest.
Reply using exactly one outcome from active, inactive

Please review the entries below; each comes with its answer.
- COMPOUND: "NC(=O)NS(=O)(=O)c1ccc(N2N=C(C(F)(F)F)CC2c2cc(C(F)(F)F)cc(C(F)(F)F)c2)cc1 (stereo unspecified)"
  DISCRETE LABEL: "inactive"
- COMPOUND: "COc1c(Br)cc(C(c2cc(Br)c(OC)c(Br)c2)c2ccccc2C(=O)O)cc1Br"
  DISCRETE LABEL: "inactive"
- COMPOUND: "FC(F)(F)c1ccc(-c2cnc(-c3nn[nH]n3)nc2NC2CCCCCC2)cc1"
  DISCRETE LABEL: "inactive"

Hello, I am checking results. What call was entered for `CC(C)OP(=O)(OC(C)C)c1ncc(-c2ccc(C(F)(F)F)cc2)c(NC2CCCCCC2)n1` ? active

Please indicate how the test categorized `C/C(=C\CCc1ccoc1)CC/C=C(\C)CCCN1CCOCC1` . inactive

Please share the test call associated with `Cc1cc(C)c(C(=O)c2cccs2)c(C)c1` . inactive

I'd appreciate the recorded outcome for `Nc1ccc2c(c1Br)Cc1ccccc1-2` from this test. inactive

What did the test return for `Clc1ccc2nc(CI)c(CI)nc2c1` ? inactive

* * *

# System: MCF7 breast
# ASSAY OVERVIEW: NCI-60 one-dose screen, 48 h
# ASSAY SETUP: 10 µM unless noted
The panel holds about 83,000 compounds, 20% with a hit somewhere; the sample as a whole holds those more often. The source made the active and inactive calls. The calls were made as follows: active = growth percent below 10; inactive = the rest.
Just give me one of these, please: active, inactive

Worked examples follow.
- COMPOUND: "COc1ccc(C(=O)/C=C/c2ccc(C)cc2)cc1OC"
  DISCRETE LABEL: "inactive"
- COMPOUND: "O=C(Nc1ccc2c(c1)C(=O)c1ccccc1-2)c1ccccc1"
  DISCRETE LABEL: "inactive"
- COMPOUND: "Cc1nn(-c2nc3ccccc3s2)c(C)c1Oc1ccccc1O"
  DISCRETE LABEL: "inactive"
- COMPOUND: "c1ccc(-c2oc(-c3ccccc3)c3ccccc23)cc1"
  DISCRETE LABEL: "inactive"
- COMPOUND: "CCn1cnc(C[C@H](NC(=O)[C@H](CCCCNC(=O)Nc2cc(C(F)(F)F)cc(C(F)(F)F)c2)NC(=O)Nc2cc(C(F)(F)F)cc(C(F)(F)F)c2)C(=O)OC)c1"
  DISCRETE LABEL: "active"

Would you mind telling me which call this test gave `Cc1cc(C(=O)Nc2ccc3cc(CN4CCOCC4)ccc3n2)c(C)n1-c1ccccc1` ? active

Please share the test call associated with O=c1oc2c(cc1-c1ccc([N+](=O)[O-])cc1)C(O)Oc1ccccc1-2 (stereo not given) . inactive

In this assay, the call recorded for `Nc1nc2c(c(=O)[nH]1)C1(C(=O)Nc3ccccc31)c1c(nc(N)[nH]c1=O)N2` was what? inactive

Call for entry `[N-]=[N+]=NCc1cccc(/C(O)=C/C(=O)C(=O)O)c1` : inactive

// param item: `O=C1/C=C/[C@@H](O)[C@@H]2C[C@@H](O)C[C@H]2/C=C/CCC[C@H](CO)O1` ; yields the recorded call active
